From: patent US20250340591A1

- assaySystem: UniProt:O43194
- Sequence (O43194 1-453): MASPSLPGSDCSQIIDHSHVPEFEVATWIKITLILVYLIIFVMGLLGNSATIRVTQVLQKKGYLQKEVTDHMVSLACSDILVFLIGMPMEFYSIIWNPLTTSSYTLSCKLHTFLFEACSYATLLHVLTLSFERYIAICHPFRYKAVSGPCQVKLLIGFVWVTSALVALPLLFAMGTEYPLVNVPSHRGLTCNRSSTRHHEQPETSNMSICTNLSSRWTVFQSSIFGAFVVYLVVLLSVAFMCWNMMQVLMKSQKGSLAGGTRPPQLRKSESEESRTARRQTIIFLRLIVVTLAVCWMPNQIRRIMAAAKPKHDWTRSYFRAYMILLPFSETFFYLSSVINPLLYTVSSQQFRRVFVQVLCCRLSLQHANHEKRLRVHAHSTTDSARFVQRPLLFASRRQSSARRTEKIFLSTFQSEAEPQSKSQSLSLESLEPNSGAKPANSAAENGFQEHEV
- testDescription: luciferase assay system (SRE luciferase reporter gene, CV-1 cells expressing GPR39)
- Type: cell-based
- Parameters: expressed in transfected cells; host or cells: CV-1 fibroblast cell line (Korea Cell Line Bank), adenoviral transduction at 50 MOI
Square brackets hold non-standard residues; d marks the D form. Peptide text beside a SMILES is read from it. * marks the point of attachment. His(Trt) = N[C@@H](Cc1cn(C(c2ccccc2)(c2ccccc2)c2ccccc2)cn1)C(=O)O; Biotin = O=C1N[C@H]2[C@H](CS[C@H]2CCCCC(=O)*)N1; His(τ-Bzl) = N[C@@H](Cc1cn(Cc2ccccc2)cn1)C(=O)O; Bip = N[C@@H](Cc1ccc(-c2ccccc2)cc1)C(=O)O; d2Nal = N[C@H](Cc1ccc2ccccc2c1)C(=O)O; Octanoyl = CCCCCCCC(=O)*
Cut-off 20 fold induction over basal on ECmax (−fold induction over basal), inclusive. At or above means condition met; below means condition not met.

// known answers, use as guide
compound=CCCCCCCC(=O)NCCCC[C@H](NC(=O)[C@H](N)Cc1cn(C(c2ccccc2)c2ccccc2)cn1)C(=O)N[C@H](Cc1ccc(C)cc1)C(=O)N[C@@H](Cc1ccc(O)cc1)C(=O)O assaysystem=UniProt:O43194 labelclass="condition met"
compound=CCCCCCCC(=O)NCCCC[C@H](NC(=O)[C@@H](N)Cc1cn([C@H](c2ccccc2)c2ccc(Cl)cc2)cn1)C(=O)N[C@@H](Cc1ccccc1)C(=O)N[C@@H](Cc1ccc(O)cc1)C(=O)O assaysystem=UniProt:O43194 labelclass="condition not met"

Item CCCCCCCC(=O)NCCCC[C@H](NC(=O)[C@@H](N)Cc1cn(Cc2ccccc2)cn1)C(=O)N[C@@H](Cc1ccccc1)C(=O)N[C@@H](Cc1ccc(O)cc1)C(=O)O [HKFY-3] (H-[His(τ-Bzl)]K(Octanoyl)FY-OH) with ECmax (−fold induction over basal) of 20 fold induction over basal or above?
condition not met

Similarly, CCCCCCCC(=O)NCCCC[C@H](NC(=O)[C@@H](N)Cc1cn(C(c2ccccc2)(c2ccccc2)c2ccccc2)cn1)C(=O)N[C@@H](Cc1ccccc1)C(=O)N[C@@H](CO)C(=O)O [HKFY-50] (H-[His(Trt)]K(Octanoyl)FS-OH) ?
condition not met

Similarly, CCCCCCCC(=O)NCCCC[C@H](NC(=O)[C@@H](N)Cc1cn(CC2c3ccccc3-c3ccccc32)cn1)C(=O)N[C@@H](Cc1ccccc1)C(=O)N[C@@H](Cc1ccc(O)cc1)C(=O)O ?
condition not met

Similarly, CCCCCCCC(=O)NCCCC[C@H](NC(=O)[C@@H](N)Cc1cn(C(c2ccccc2)(c2ccccc2)c2ccccc2)cn1)C(=O)N[C@H](Cc1ccc2ccccc2c1)C(=O)N[C@@H](Cc1ccc(O)cc1)C(=O)O [HKFY-74] (H-[His(Trt)]K(Octanoyl)[d2Nal]Y-OH) ?
condition not met

Similarly, C[C@H](NC(=O)[C@H](CCC(N)=O)NC(=O)[C@H](CCC(N)=O)NC(=O)[C@H](CC(=O)O)NC(=O)[C@H](Cc1ccc(O)cc1)NC(=O)[C@H](Cc1ccccc1)NC(=O)[C@@H](N)Cc1cn(C(c2ccccc2)(c2ccccc2)c2ccccc2)cn1)C(=O)N[C@@H](CCCNC(=N)N)C(=O)N[C@@H](Cc1ccccc1)C(N)=O [HKFY-52] (H-[His(Trt)]FYDQQARF-NH2) ?
condition not met

Similarly, CCCCCCCC(=O)NCCCC[C@H](NC(=O)[C@H](Cc1cn(C(c2ccccc2)(c2ccccc2)c2ccccc2)cn1)NC(=O)CCCC[C@@H]1SC[C@@H]2NC(=O)N[C@@H]21)C(=O)N[C@@H](Cc1ccc(-c2ccccc2)cc1)C(=O)N[C@@H](Cc1ccc(O)cc1)C(=O)O [HKFY-45] (Biotin-[His(Trt)]K(Octanoyl)[Bip]Y-OH) ?
condition met
